Data provenance: PubChem BioAssay (NCI)

Tested on: MDA-MB-468 breast
Assay: NCI-60 one-dose screen, 48 h (100 = growth as untreated, 0 = no growth, -100 = all killed)
Conditions: 10 µM unless noted
This is part of a sample that, as a whole, favours compounds with a hit. Of some 83,000 tested, about 20% had one in any assay.
# label = bin(measured growth), where bins are band A = under -10%, band B = from -10% up to 90%, band C = 90% and over

Please report the category associated with COc1ccc2c(c1)CCNC21C(=O)Nc2c(Br)cc(Br)cc21 (stereo not given) , nothing else. band C

Also "CCOc1ccc(Nc2nc(-c3c(C)nc4ncccn34)cs2)cc1" ? band B

// query: CCCN(CCC)CC(O)COc1ccccc1C(=O)Nc1ccccc1 (stereo not given) band B

Follow-up entry: NC1(CO)COC(c2ccccc2)OC1 (stereo not given) band C

Param item: COc1cccc2cc(-c3nc(C4CCC(C(=O)O)CC4)n4ncnc(N)c34)[nH]c12 (stereo not given) band A

What would you report for "O=C(O)c1ccc(-n2cc(CNc3ccc(C(F)(F)F)cc3)c(-c3ccccc3)n2)cc1" ? band C

Quick one: COCCNCC(O)Cn1c2ccc(Cl)cc2c2cc(Cl)ccc21 (stereo not given) band A

Please give the result for CC(=O)C1=C(C)NC(SCc2nnc(-c3ccc(C)cc3)o2)=NC1c1ccc(F)cc1 (stereo not given) too. band C

Try the molecule "N/N=C(/Cc1ccccc1)NNC(N)=S" band C

###

Tested on: MDA-MB-468 breast
Assay: NCI-60 one-dose screen, 48 h
Conditions: 10 µM unless noted
The panel holds about 83,000 compounds, 20% with a hit somewhere; the sample as a whole holds those more often. Active and inactive are the calls of the source. Rule for the calls: active = growth percent below 10; inactive = the rest.
Would you mind answering with one of these outcomes? active, inactive

Just curious, what result did "O=C(/C=C/c1ccc(Cl)cc1)c1ccc(Nc2nc(NCCO)nc(Nc3ccc(Cl)cc3)n2)cc1" get here? inactive

Also "CCCCSc1ccc2nc(-c3ccc(OCCCN=C(N)N)cc3)cn2c1" , if possible. inactive

"C=CC(=O)Nc1ccc(Nc2nccc(-c3ccc(N4CCCC4)c(C#N)c3)n2)cc1" , same question. active

Item: "N#Cc1cccc(CN2CCc3ncn(Cc4ccc(Cl)cc4)c(=O)c3C2)c1" active

Would you kindly repeat that for "CCCCCCCCCCCCCCCCNC(=O)OC(C)C" ? inactive

###

System: PC-3 prostate
Assay: NCI-60 one-dose screen, 48 h
Settings: 10 µM
The panel holds about 83,000 compounds, 20% with a hit somewhere; the sample as a whole holds those more often. The source made the active and inactive calls. The calls were made as follows: active = growth percent below 10; inactive = the rest.
Field 'call' accepts y = active, n = inactive

Consider the worked cases shown below.
molecule="COc1cc(C2CC(c3ccccc3)=Nc3c(N)nc(N)nc3N2)ccc1Oc1nc(NCCO)nc(N2CCOCC2)n1 (stereo not drawn)" qualitative_label=n
molecule="CC1(C)CC[C@]2(C(=O)O)CC[C@]3(C)C(=CCC4[C@@]5(C)C[C@@H](O)[C@@H]6OC(c7cccc(F)c7)OC[C@@]6(C)C5CC[C@]43C)C2C1 (stereo partly drawn)" qualitative_label=n
molecule=O=[N+]([O-])c1cccc(-c2nnc3c(/C=C/c4ccccc4O)nc4ccccc4n23)c1 qualitative_label=n

Here is the next item to consider.
For "O=C(CSc1nc2ccccc2c(=O)n1-c1ccc(Cl)cc1)Nc1ccc(-c2nc3ccc([N+](=O)[O-])cc3[nH]2)cc1" , what call appears in the results of this test? y

###

System: MDA-MB-468 breast
Assay: NCI-60 one-dose screen, 48 h (100 = growth as untreated, 0 = no growth, -100 = all killed)
Details: 10 µM unless noted
The panel holds about 83,000 compounds, 20% with a hit somewhere; the sample as a whole holds those more often.
I'd appreciate it if you marked entries Met when growth is lower than 90% and Not met when it is not.

Example cases with answers are listed next.
compound=Cc1ccc(C(=O)c2ccc(CC(=O)N/N=C/c3ccc(O)cc3O)n2C)cc1 qualitative_label=Met
compound="C#CCN(Cc1ccc2nc(N)[nH]c(=O)c2c1)c1ccc(C(=O)NC(CCC(=O)O)C(=O)O)cc1 (stereo not given)" qualitative_label=Met

Dear colleague, could you confirm whether growth of "O=C1OC(c2ccccc2)=N/C1=C\c1ccc([N+](=O)[O-])cc1" falls below 90%? Thanks. Not met

Try this compound too: "O=Cc1ccc(-c2cn3ccnc3c(-c3ccc4ncn(Cc5ccccc5)c4c3)n2)cc1" Not met

###

Test system: MDA-MB-468 breast
Assay: NCI-60 one-dose screen, 48 h (100 = growth as untreated, 0 = no growth, -100 = all killed)
Details: 10 µM unless noted
Compounds without any hit were thinned out: in the full panel of roughly 83,000, 20% have a hit.
Parameter growth: see the listing below.
Numbers only here, please. The scale is %.

Here are 4 molecules together with their reported answers.
mol_smiles=O=C(Nc1ccc(F)cc1)c1ccc(C(=O)Nc2ccc(F)cc2)cc1 experimental_value=99.7
mol_smiles=C[C@H](NC(=O)[C@@H]1CSSC[C@@H](NC(=O)Cc2nc3ccccc3cc2O)C(=O)NCC(=O)N1C)c1ccccc1 experimental_value=17.5
mol_smiles=CN1CCN(Cc2ccc(NC(=O)c3cncc(C#Cc4cnc5ccc(N6CCSCC6)nn45)c3)cc2C(F)(F)F)CC1 experimental_value=-74.2
mol_smiles=O=C(/C=C/c1ccc([N+](=O)[O-])cc1)c1ccccc1 experimental_value=110

For the next question, use this molecule.
What does the record list as growth for "N#C/C(=C\NC(=S)N=Nc1c(O)[nH]c2ccccc12)c1nc2ccccc2s1" ? 79.8

###

Tested on: MDA-MB-468 breast
Assay: NCI-60 one-dose screen, 48 h
Settings: 10 µM unless noted
The panel holds about 83,000 compounds, 20% with a hit somewhere; the sample as a whole holds those more often. Active and inactive are the calls of the source. Rule for the calls: active = growth percent below 10; inactive = the rest.
Hello, when you answer, please use one of the following outcomes: active, inactive

Assay outcome for "Oc1ccc2ccccc2c1N=Nc1nccs1" : what was it? active

Lookup "CNC(=O)c1cc(Oc2ccc3nc(NC(C)=O)sc3c2)ccn1" inactive

Request: "O=c1oc2ccc(Br)cc2c(=O)n1-c1ccc(F)cc1F" active

Next: "CC(C)CCSc1nc(-c2ccc(F)cc2)c(C#N)c(N2CCN(C)CC2)n1" inactive

Okay, and "O=C(c1cc2ccccc2o1)c1nn(-c2ccccc2)/c(=N/N=Cc2cn(-c3ccccc3)nc2-c2cc3ccccc3oc2=O)s1" ? inactive

###

Test system: MDA-MB-468 breast
Test: NCI-60 one-dose screen, 48 h (100 = growth as untreated, 0 = no growth, -100 = all killed)
Details: 10 µM unless noted
This is part of a sample that, as a whole, favours compounds with a hit. Of some 83,000 tested, about 20% had one in any assay.
Kindly note that classification relies on growth with these boundaries: bucket A = under 10%, bucket B = from 10% up to 80%, bucket C = 80% and over

compound=COC(=O)c1c2c(c(C)[n+]([O-])c1C)C(=O)C(NCc1ccc(F)cc1)=CC2=O experimental_target="MDA-MB-468 breast" qualitative_label="bucket A"
compound="CCOC(=O)C(C)(C#N)C1C=CCCC1 (stereo unspecified)" experimental_target="MDA-MB-468 breast" qualitative_label="bucket B"
compound=c1ccc(Nc2ccccn2)cc1 experimental_target="MDA-MB-468 breast" qualitative_label="bucket C"
compound=Oc1ccc(N=Cc2ccccc2O)cc1 experimental_target="MDA-MB-468 breast" qualitative_label="bucket C"
compound=COC(=O)c1cccc(NC2=C(Cl)C(=O)C(C)=C(C)C2=O)c1 experimental_target="MDA-MB-468 breast" qualitative_label="bucket A"

Please report the category associated with "CC/C(=C(/CC)c1ccc(O)cc1)c1ccc(O)cc1" , nothing else. bucket B

Would you mind doing "COc1cc(Nc2c(C#N)cnc3cc(OCCCN4CCN(C)CC4)c(OC)cc23)c(Cl)cc1Cl" as well? bucket B

Okay, and "COc1ccc(-c2nc3ccccn3c2/C=C/C(=O)c2cc(OC)c(OC)c(OC)c2)cc1OC" ? bucket A

Try "CCCc1cc2cc(-n3nc(C)c4c3CC(C)(C)CC4=O)cc(NC3CCSCC3)c2c(=O)[nH]1" next. bucket B

###

Tested on: PC-3 prostate
Experiment: NCI-60 one-dose screen, 48 h
Details: 10 µM
Protocol: Growth inhibition of the PC-3 human tumor cell line is measured as a screen for anti-cancer activity. Cells are grown in 96 well plates and exposed to the test compound for 48 hours. Compounds are tested at a single concentration, which is 10^-5 M for most compounds. The reported endpoint is percent growth (GI% or GIPRCNT), where numbers from 0 - 100% represent growth inhibition, and numbers from -100% - 0 represent cell death. For example, a value of 40 represents 60% growth inhibition. […]
Compounds without any hit were thinned out: in the full panel of roughly 83,000, 20% have a hit. Calls of active or inactive are those of the source. The calls were made as follows: active = growth percent below 10; inactive = the rest.
Outcome field: choose from Yes for active, No for inactive

Check out these entries, answers already filled in.
compound=CCn1c(SCC(=O)Nc2ccc(-c3nc4ccccc4[nH]3)cc2)nc2ccccc2c1=O qualitative_label=Yes
compound=O=C(Nc1ccc(Oc2ncnc3scc(Nc4n[nH]c(=S)s4)c23)cc1)C1(C(=O)Nc2cccc(C(F)(F)F)c2)CC1 qualitative_label=No
compound=Cc1ccc(COc2ccc(NC(=O)Nc3ccc(Cl)c(C(F)(F)F)c3)cc2)cc1 qualitative_label=No
compound=COc1cc2oc(-c3cccc(C(=O)Nc4ccc(Cl)cc4)c3)cc(=O)c2c(OCCN)c1OC qualitative_label=Yes
compound="COc1ccc(C2c3sc4ccc(C)cc4c3Oc3nc(N)nc(N)c32)cc1 (centres undefined)" qualitative_label=No
compound="C#CCOc1cc(N(CC)CC)ccc1C(C(=O)NC(C)(C)C)N(C(=O)C1CCc2cc(F)ccc2O1)c1ccc(F)cc1F (centres undefined)" qualitative_label=No
compound=COc1ccc(Cn2cc(C#N)c(N)c2C(C)=O)c(OC)c1 qualitative_label=No
compound=Fc1ccc(/C=C/c2nc3ccccc3n3c(-c4ccc(Cl)cc4)nnc23)cc1 qualitative_label=No

Proceed to the following item.
Could you check what this test reported for "Cc1cc(N=C2NC(=O)S/C2=C\c2ccc(F)cc2)n[nH]1" ? Yes
